Target: HIS-TGF-βR1 T204D (Homo sapiens (Human), UniProt P36897, T204D)
Sequence (P36897 34-503 T204D): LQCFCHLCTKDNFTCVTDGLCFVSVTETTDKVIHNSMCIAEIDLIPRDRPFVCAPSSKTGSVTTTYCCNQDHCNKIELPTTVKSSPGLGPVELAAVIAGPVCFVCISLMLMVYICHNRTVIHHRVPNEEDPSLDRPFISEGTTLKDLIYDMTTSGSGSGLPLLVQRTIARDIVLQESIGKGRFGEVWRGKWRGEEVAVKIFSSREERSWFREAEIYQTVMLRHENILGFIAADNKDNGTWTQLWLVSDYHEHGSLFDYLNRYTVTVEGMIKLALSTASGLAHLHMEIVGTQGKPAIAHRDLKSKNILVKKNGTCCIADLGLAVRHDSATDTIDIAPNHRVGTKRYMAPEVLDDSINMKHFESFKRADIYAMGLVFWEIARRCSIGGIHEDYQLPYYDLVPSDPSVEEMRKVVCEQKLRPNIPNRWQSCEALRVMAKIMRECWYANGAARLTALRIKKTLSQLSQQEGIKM
Test: HTRF probe displacement assay with HIS-TGF-βR1 T204D
Settings: read-out: TGFbr1 IC50; HTRF probe displacement, 1 nM HIS-TGF-βR1 T204D, 1 hour at room temperature
value_kind: IC50 (nM)
The response must be a number in nM with no trailing unit.

Quote IC50 reported for N#Cc1cnc2ccc(-c3c(-c4ccc(F)c(C(F)(F)F)c4)ncn3CC(F)F)nn12 please. 8.8

Specify IC50 for N#Cc1cnc2ccc(-c3c(-c4ccc(F)c(Cl)c4)ncn3C3CC(F)(F)C3)nn12 and stop. 2.1

Supply recorded IC50 for NC(=O)c1cnc2ccc(-c3c(-c4ccc(F)c(Cl)c4)ncn3CCN3CCOCC3)cn12 here. 6.5

Report measured IC50; entry is OCc1cnc2ccc(-c3c(-c4ccc(F)cc4)ncn3CC(F)F)cn12 [274D′] 92.6

Quickly give me recorded IC50 for N#Cc1cnc2ccc(-c3c(-c4cc(Cl)c(F)cc4F)ncn3CC(F)F)cn12 8.6

Retrieve IC50 measured for Fc1ccc(-c2ncn(CC(F)F)c2-c2ccc3ncc(CNCC(F)F)n3c2)cc1 and print it. 121

###

Molecular target: HIS-TGF-βR1 T204D (Homo sapiens (Human), UniProt P36897, T204D)
Assay: HTRF probe displacement assay with HIS-TGF-βR1 T204D
Details: read-out: TGFbr1 IC50; HTRF probe displacement, 1 nM HIS-TGF-βR1 T204D, 1 hour at room temperature
value_kind: IC50

// below: answered compounds
NC(=O)c1cnc2ccc(-c3c(-c4ccc(F)cc4)ncn3C3COC3)nn12 [126′]; 7.4 nM
N#Cc1cnc2ccc(-c3c(-c4ccc(F)cc4)ncn3CC(F)F)cn12 [Example 224′]; 66.7 nM
N#Cc1cnc2ccc(-c3c(-c4cccc(C(F)(F)F)c4)ncn3CC(F)F)nn12 [243′]; 1.8 nM

Tell me IC50 reported for NNC(=O)c1cnc2ccc(-c3c(-c4ccc(F)cc4)ncn3CC(F)F)nn12 [Example 205′] 1.8 nM

###

Biological target: HIS-TGF-βR1 T204D (Homo sapiens (Human), UniProt P36897, T204D)
Test: HTRF probe displacement assay with HIS-TGF-βR1 T204D
Conditions: read-out: TGFbr1 IC50; HTRF probe displacement, 1 nM HIS-TGF-βR1 T204D, 1 hour at room temperature
So basically, if IC50 comes in under 3 nM it's Criterion met, and if it's 3 nM or more it's Criterion not met.

Reference set, count: 3
NC(=O)c1cnc2ccc(-c3c(-c4ccc(F)cc4)ncn3C3CCC(F)(F)C3)nn12 (centres unmarked); Criterion met
COC(=O)N1CC(n2cnc(-c3ccc(F)cc3)c2-c2ccc3ncc(C#N)n3n2)C1; Criterion not met
N#Cc1cnc2ccc(-c3c(-c4ccc5c(c4)OCO5)ncn3CC(F)F)nn12; Criterion not met

Lab log: compare recorded IC50 with 3 nM; is it strictly lower for NC(=O)CNC(=O)c1cnc2ccc(-c3c(-c4ccc(F)cc4)ncn3CC(F)F)cn12 ? Criterion not met

is_below(IC50, 3 nM) for N#Cc1cnc2ccc(-c3c(-c4ccc(F)c(Cl)c4)ncn3CCO)nn12 ? Criterion met

# strict comparison: is reported IC50 < 3 nM? input = Cn1cnc(-c2ccc(F)c(Cl)c2)c1-c1ccc2nccn2c1 Criterion not met

Consider N#Cc1cnc2ccc(-c3c(-c4cccc(O)c4)ncn3CC(F)F)nn12 . Does its IC50 lie strictly below 3 nM? Criterion met

API: query returns whether the compound falls strictly under 3 nM in IC50. Query: CCC(CO)n1cnc(-c2ccc(F)cc2)c1-c1ccc2ncc(C(N)=O)n2c1 (centres unmarked) Criterion met
